- System: Escherichia coli TOP10;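 also: peptides expressed intracellularly from a pBAD plasmid library in pooled LB shake-flask culture, induced with 0.3% L-arabinose, DNA abundance read by NGS, three biological replicates, DESeq2 with apeglm shrinkage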
- TEST DESCRIPTION: shrunken log2 fold change of peptide-encoding DNA abundance (4.5 h post-induction vs induction); higher = less antimicrobial activity (less host growth inhibition)
- CONDITION SUMMARY: time post-induction: 4.5 h; library: site-saturation at positions 5, 18, 19, 20
Assign class by shrunken log2 fold change: not lower than -0.05 means fulfilled; lower than -0.05 means not fulfilled.

{"columns": ["CONSTRUCT SEQUENCE", "LABEL VALUE"],
 "data": [
  ["RRIRVRPPRLPRPRPRPSATPRP", "fulfilled"],
  ["RRIRPRPPRLPRPRPRPIQWPRP", "fulfilled"],
  ["RRIRERPPRLPRPRPRPQQQPRP", "fulfilled"],
  ["RRIRTRPPRLPRPRPRPRHGPRP", "fulfilled"],
  ["RRIRNRPPRLPRPRPRPGMEPRP", "fulfilled"],
  ["RRIRERPPRLPRPRPRPKHFPRP", "not fulfilled"],
  ["RRIRHRPPRLPRPRPRPTEMPRP", "fulfilled"],
  ["RRIRNRPPRLPRPRPRPFFGPRP", "fulfilled"],
  ["RRIRPRPPRLPRPRPRPERRPRP", "fulfilled"],
  ["RRIRCRPPRLPRPRPRPFLGPRP", "not fulfilled"],
  ["RRIRTRPPRLPRPRPRPVSNPRP", "not fulfilled"],
  ["RRIRARPPRLPRPRPRPGNNPRP", "not fulfilled"],
  ["RRIRYRPPRLPRPRPRPPHMPRP", "not fulfilled"],
  ["RRIRTRPPRLPRPRPRPEHCPRP", "not fulfilled"],
  ["RRIRKRPPRLPRPRPRPQYFPRP", "fulfilled"],
  ["RRIRNRPPRLPRPRPRPQRHPRP", "not fulfilled"],
  ["RRIRSRPPRLPRPRPRPCFPPRP", "not fulfilled"],
  ["RRIRCRPPRLPRPRPRPAVQPRP", "not fulfilled"],
  ["RRIRSRPPRLPRPRPRPMNHPRP", "not fulfilled"],
  ["RRIRYRPPRLPRPRPRPYGKPRP", "not fulfilled"],
  ["RRIRQRPPRLPRPRPRPSMSPRP", "not fulfilled"],
  ["RRIRYRPPRLPRPRPRPCMAPRP", "not fulfilled"],
  ["RRIRIRPPRLPRPRPRPESGPRP", "not fulfilled"],
  ["RRIRQRPPRLPRPRPRPKMNPRP", "not fulfilled"]
]}
